All figures here come from patent US6358885B1.

- Test system: lambsquarters
- MEASUREMENT DESCRIPTION: Test B preemergence/postemergence greenhouse plant response rating 0 to 10
- Assay type: in vivo, Chenopodium album
- CONDITION DETAILS: Rate 200 g/ha, POSTEMERGENCE; 0 to 10 scale
ENDPOINT LABEL: Plant response rating, Lambsquarter
Keep it simple and answer with nothing but the number.

// solved cases for Plant response rating, Lambsquarter follow
# COMPOUND, OBSERVED MEASUREMENT
records = [
    ("C#CC(C)Oc1cc(-c2nn3c(c2Br)CCCC3)c(F)cc1Cl (stereo not drawn)", 10),
    ("C=CCOc1cc(-c2nn3c(c2Br)CCCC3)c(F)cc1Cl", 10),
    ("CON=C(C)c1cc(-c2nn3c(c2Cl)CCCC3)c(F)cc1Cl", 9),
    ("Fc1cc(Cl)c(-c2ccccc2)cc1-c1nn2c(c1Cl)CCCC2", 10),
    ("COc1cc(-c2nn3c(c2Cl)CCCC3)c(F)cc1Cl", 10),
]

Could you now look at the following compound, please?
Problem: Query: Plant response rating, Lambsquarter; subject: C#CC(C)Oc1cc(-c2nn3c(c2Cl)CCCC3)c(Cl)cc1Cl (stereo not drawn)
Result: 10
